- TEST NAME: Toxicity liver stage against HepG2, at 10uM
- Type: cell-based
- Design: test concentration 10 uM, cell line HepG2-A16-CD81EGFP
- CONDITION NOTES: human, HepG2-A16-CD81EGFP cells; read-out: INHIBITION
Listed next: entries and their corresponding cytotoxicity at 10 µM.
QUANTITY KIND: cytotoxicity at 10 µM (%)

[[record]]
compound = "Cn1cncc1CN1CC[C@](C)(O)[C@@H](Oc2cccc(F)c2)C1"
quantity_kind = "cytotoxicity at 10 µM"
unit_label = "%"
observed = -8.49

[[record]]
compound = "CC(C)C(=O)NC1CCN(CCO)CC1"
quantity_kind = "cytotoxicity at 10 µM"
unit_label = "%"
observed = -8.84

[[record]]
compound = "Cc1nsc(NC2CC(=O)N(C(C)(C)C)C2)n1 (stereo not drawn)"
quantity_kind = "cytotoxicity at 10 µM"
unit_label = "%"
observed = -8.52

[[record]]
compound = "Cc1noc(C)c1CN1CC2(CCN(C(=O)c3c[nH]cn3)C2)CC1=O (stereo not drawn)"
quantity_kind = "cytotoxicity at 10 µM"
unit_label = "%"
observed = -5.23

[[record]]
compound = "CC(NC(=O)Nc1cc(F)cc(F)c1)c1nc[nH]n1 (stereo not drawn)"
quantity_kind = "cytotoxicity at 10 µM"
unit_label = "%"
observed = -4.02

[[record]]
compound = "O=C1N(Cc2cccc(Cl)c2)CCC12CCCNC2 (stereo not drawn)"
quantity_kind = "cytotoxicity at 10 µM"
unit_label = "%"
observed = -16.5

[[record]]
compound = "CCOCC1CN(Cc2ccoc2)Cc2nn(C)cc21 (stereo not drawn)"
quantity_kind = "cytotoxicity at 10 µM"
unit_label = "%"
observed = -2.8

[[record]]
compound = "COc1ccc(CN2CC[C@H](NC(C)=O)[C@@H](O)CC2)c(F)c1"
quantity_kind = "cytotoxicity at 10 µM"
unit_label = "%"
observed = -11.1

[[record]]
compound = "Cc1cccc(-c2noc(CN3CC(n4cccn4)C3)n2)c1"
quantity_kind = "cytotoxicity at 10 µM"
unit_label = "%"
observed = -0.0158

[[record]]
compound = "O=C(NC(C1CC1)C1CC1)c1cccc[n+]1[O-]"
quantity_kind = "cytotoxicity at 10 µM"
unit_label = "%"
observed = 10.8

[[record]]
compound = "COCC1CN(c2ccc(C)nn2)Cc2cnn(CC3CCOCC3)c21 (stereo not drawn)"
quantity_kind = "cytotoxicity at 10 µM"
unit_label = "%"
observed = 4.62

[[record]]
compound = "COc1ccccc1-c1ccc(C2CCCN(C(C)=O)C2)nc1 (stereo not drawn)"
quantity_kind = "cytotoxicity at 10 µM"
unit_label = "%"
observed = -4.96

[[record]]
compound = "Cc1noc(-c2cnc(NC3CC3)nc2-c2ccco2)c1C"
quantity_kind = "cytotoxicity at 10 µM"
unit_label = "%"
observed = 6.38

[[record]]
compound = "Cc1nc(NCc2scnc2-c2ccccc2)cc(C2CCNCC2)n1"
quantity_kind = "cytotoxicity at 10 µM"
unit_label = "%"
observed = 1.69

[[record]]
compound = "O=C1COC[C@H]([C@H](O)c2ccc(NC(=O)c3ccco3)cc2)N1"
quantity_kind = "cytotoxicity at 10 µM"
unit_label = "%"
observed = -2.33

[[record]]
compound = "COCc1ccc(C(=O)N2CCC(Oc3ccccc3)(C(=O)O)CC2)o1"
quantity_kind = "cytotoxicity at 10 µM"
unit_label = "%"
observed = 0.871

[[record]]
compound = "O=C(CCCc1ccccn1)N1CCCC1c1noc(C2CC2)n1 (stereo not drawn)"
quantity_kind = "cytotoxicity at 10 µM"
unit_label = "%"
observed = -4.47

[[record]]
compound = "CN(C)CCN(CC1CCCO1)S(=O)(=O)NCc1ccccc1 (stereo not drawn)"
quantity_kind = "cytotoxicity at 10 µM"
unit_label = "%"
observed = 0.666


----------
Below, each entry is listed alongside its reported cytotoxicity at 10 µM.
- TEST NAME: Toxicity liver stage against HepG2, at 10uM
- Assay type: cell-based
- Parameters: test concentration 10 uM, cell line HepG2-A16-CD81EGFP
- CONDITION NOTES: human, HepG2-A16-CD81EGFP cells; read-out: INHIBITION
QUANTITY KIND: cytotoxicity at 10 µM (%)

[[record]]
compound = "O=C1Nc2ccccc2/C1=C1\\CCCCN1"
quantity_kind = "cytotoxicity at 10 µM"
observed = 4.95

[[record]]
compound = "COc1ccccc1C1CC(=O)Nc2nc(N3CCCCC3)sc21 (stereo unspecified)"
quantity_kind = "cytotoxicity at 10 µM"
observed = 11.5

[[record]]
compound = "COCC(=O)N1CCC2(CCN(c3cnn(C)c3)C2=O)C1 (stereo unspecified)"
quantity_kind = "cytotoxicity at 10 µM"
observed = 0.486

[[record]]
compound = "O=C(N[C@H]1CN(c2ccncc2)C[C@@H]1C1CC1)C1CCOCC1"
quantity_kind = "cytotoxicity at 10 µM"
observed = -11.8

[[record]]
compound = "O=C(c1ccc2cc[nH]c2c1)N1CCC(Nc2cccnn2)CC1"
quantity_kind = "cytotoxicity at 10 µM"
observed = -5.06

[[record]]
compound = "Cc1ccc(S(=O)(=O)Nc2c(C)nc(N3CCCC3)nc2C)cc1"
quantity_kind = "cytotoxicity at 10 µM"
observed = -0.243


----------
- TEST NAME: Toxicity liver stage against HepG2, at 10uM
- Format: cell-based
- Set-up: test concentration 10 uM, cell line HepG2-A16-CD81EGFP
- CONDITION NOTES: human, HepG2-A16-CD81EGFP cells; read-out: INHIBITION
QUANTITY KIND: cytotoxicity at 10 µM (%)

[[record]]
compound = "O=C(c1ccc[nH]1)N1C[C@@H]2CC[C@H]1CN(C1Cc3ccccc3C1)C2"
observed = -1.85

[[record]]
compound = "Cc1cccc(CN2CCC3(CCCN(Cc4cnn(C)c4)C3)C2=O)n1 (centres undefined)"
observed = 6.02

[[record]]
compound = "CS(=O)(=O)NC[C@]12COC[C@H]1CN(C(=O)c1cnccn1)C2"
observed = 6.3

[[record]]
compound = "Cn1cc(Cl)cc1C(=O)N1CCC2(CCCN(CC3CC3)C2=O)C1 (centres undefined)"
observed = 1.96


----------
- TEST NAME: Toxicity liver stage against HepG2, at 10uM
- Type: cell-based
- Set-up: test concentration 10 uM, cell line HepG2-A16-CD81EGFP
- CONDITION NOTES: human, HepG2-A16-CD81EGFP cells; read-out: INHIBITION
QUANTITY KIND: cytotoxicity at 10 µM (%)

[[record]]
compound = "Cc1nn(C)c(C)c1NC(=O)CCn1ncc2c(C)cccc21"
observed = -10.8

[[record]]
compound = "O=C(CC1[C@H]2CN(C(=O)c3cccnc3)C[C@@H]12)Nc1cccnc1 (stereo partly specified)"
observed = 7.37

[[record]]
compound = "CC(C(=O)N1CCn2cncc2C1)N1C[C@@H](C)O[C@@H](C)C1 (stereo partly specified)"
observed = 3.13

[[record]]
compound = "CCc1ccc2nc(C)cc(C(=O)NCc3csc(N(C)C)n3)c2c1"
observed = 2.64

[[record]]
compound = "CCOc1ccc(C(=O)N2CCCC2c2c(C)nn(C)c2OC)cn1 (stereo unspecified)"
observed = 2.63

[[record]]
compound = "CC(=O)NCC(=O)N1CCc2nc(C)nc(C)c2CC1"
observed = -12

[[record]]
compound = "COc1ncccc1NC(=O)N(Cc1ccc(C)o1)C1CC1"
observed = -1.83

[[record]]
compound = "CC(C)Nc1ncnc2c1CCN(C(=O)CC1CCCC1)CC2"
observed = -81.5

[[record]]
compound = "COc1ccc(CN(C(=O)CCC(C)C)c2cnn(C)c2)c(OC)c1"
observed = -1.35

[[record]]
compound = "O=C(NCC1(CO)CC1)c1cccc2ccccc12"
observed = -12.5

[[record]]
compound = "NC1(c2nc(-c3ccccc3)cc(=O)[nH]2)CCCC1"
observed = 1.47

[[record]]
compound = "CCS(=O)(=O)N1CCC2(CN(c3cccc(F)c3)C(=O)CN2C)C1 (stereo unspecified)"
observed = -74.4

[[record]]
compound = "COCCC1(C(=O)O)CCCN(CCc2ccccc2)C1 (stereo unspecified)"
observed = 10.6

[[record]]
compound = "CC1CN(c2ccc(C#N)cn2)CCN1c1ccc2nncn2n1 (stereo unspecified)"
observed = 1.42

[[record]]
compound = "OC[C@@H]1CCCN1Cc1cn(C2CCN(C3CCCC3)CC2)nn1"
observed = -3.73

[[record]]
compound = "CN(Cc1noc(C2CC2)n1)C1CCN(Cc2nc(C3CC3)no2)C1 (stereo unspecified)"
observed = -1.57

[[record]]
compound = "COc1cccc(CNc2cc(N3CCCC3CO)ncn2)n1 (stereo unspecified)"
observed = -12.5

[[record]]
compound = "CNC(=O)c1c(C)cccc1NCc1nnc(C2CC2)o1"
observed = 2.41

[[record]]
compound = "O=C(CCc1ccsc1)N1CCCC(N2CCNC2=O)C1 (stereo unspecified)"
observed = -5.7

[[record]]
compound = "Cc1cnn(CC(C)NCc2nc(-c3ccco3)no2)c1 (stereo unspecified)"
observed = -16

[[record]]
compound = "Clc1ccc(OCCCN2CCOC(Cn3cncn3)C2)cc1 (stereo unspecified)"
observed = -10

[[record]]
compound = "CS(=O)(=O)CCSCc1cc(F)cc2cccnc12"
observed = -1.46

[[record]]
compound = "CN(C)CCN1CCCC12CCCN(C(=O)c1cccnc1)C2 (stereo unspecified)"
observed = -0.95

[[record]]
compound = "Cc1ncsc1CN1CCC2(CC1)CC(=O)N(Cc1ccc(Cl)cc1)C2"
observed = 6.83

[[record]]
compound = "Cc1ccc(C(=O)CN(C2=NCCCCC2)c2ccccc2)cc1"
observed = 17.7

[[record]]
compound = "O=C(COc1cccc(Br)c1)N1CCOCC1c1ncon1 (stereo unspecified)"
observed = -9.36

